Tested on: Aspergillus niger
experiment: Induction of GFP tagged PagsA expression in Aspergillus niger JvD1.1 at 104.2 ug/mL by fluorescence microscopy
Type: functional, organism-based
Active and inactive are the calls of the source. The calls are words filed in the database; no cut-off is given here.
quantity-name: Activity

{"compound": "CCCCNC(=O)n1c(NC(=O)OC)nc2ccccc21", "result": "inactive"}
{"compound": "N#Cc1c[nH]cc1-c1cccc2c1OC(F)(F)O2", "result": "Active"}
{"compound": "CCCCCCC(=O)CCCCCC/C=C/C[C@@H](O)[C@H](O)[C@@](N)(CO)C(=O)O", "result": "inactive"}
{"compound": "CC(Cc1ccc(C(C)(C)C)cc1)CN1C[C@@H](C)O[C@@H](C)C1 (some centres undefined)", "result": "Active"}
